test: Solubility in buffer of (pH 8) at pH 9.0; format: physicochemical; settings: buffer (pH 8)
assayMetric: solubility

**Q:** Any idea what solubility was measured for `Cl.NC(=O)c1cnc2n1CCc1ccccc1C21CCNCC1` ?
**A:** 12.2 mg/mL

---

assay: Solubility in buffer (pH 10) at pH 4.3; format: physicochemical
assayMetric: solubility

**Q:** Any idea what solubility was measured for Cl.Cl.NC(=O)c1cnc2n1CCc1ccccc1C21CCNCC1 [VAPITADINE DIHYDROCHLORIDE] ?
**A:** > 20 mg/mL

---

system: Cavia porcellus; test: Effective dose for blockade of skin reactions induced by histamine in guinea pig by 2 hr after the oral administration
// values below are reported ED50
Your answer should be a plain number; it is taken to be in mg/kg.

Solved cases below.
compound: Cn1ccc2c1C(=O)Cn1ccnc1C2=C1CCNCC1
measureUnit: mg/kg
ED50: 0.08
//
compound: Cl.Cl.O=C(O)COCCN1CCN([C@H](c2ccccc2)c2ccc(Cl)cc2)CC1 [LEVOCETIRIZINE DIHYDROCHLORIDE]
measureUnit: mg/kg
ED50: 0.14
//
compound: Cn1ccc2c1CCn1ccnc1C2=C1CCNCC1
measureUnit: mg/kg
ED50: 0.96

**Q:** Return ED50 measured with Cavia porcellus given this compound: Cl.Cl.NC(=O)c1cnc2n1CCc1ccccc1C21CCNCC1 [VAPITADINE DIHYDROCHLORIDE]
**A:** 0.14

**Q:** Return ED50 measured with Cavia porcellus given this compound: `CCOC(=O)N1CCC(=C2c3ccc(Cl)cc3CCc3cccnc32)CC1`
**A:** 0.32
